VALUE_TYPE: melting point

Would you please look over these solved cases?
O=S(=O)(NCCN1CCOCC1)c1ccc(C#Cc2cnn3c(C(F)(F)F)cc(-c4ccc(C(F)(F)F)cc4)nc23)s1 [Example 158]
219 °C
CCOc1cc(-c2cc(C(F)(F)F)n3ncc(C#Cc4cccc(S(=O)(=O)NC(C)(C)CO)c4)c3n2)ccc1C(F)(F)F [Example 41]
209 to 211 °C
Nc1ncc(C#Cc2cnn3c(C(F)F)cc(-c4ccc(C(F)(F)F)cc4)nc23)cn1 [Example 213]
242 to 243 °C
CCCc1cc(-c2ccc(Cl)cc2)nc2c(C#Cc3ccc(N)nc3)cnn12 [Example 305]
215 to 217 °C

# input melting point for O=S(=O)(c1cccc(C#Cc2cnn3c(C(F)(F)F)cc(-c4ccc(C(F)(F)F)cc4)nc23)c1)N1CCOCC1 [Example 129] ?
# output 203 to 204 °C

# input melting point for CC(CO)NS(=O)(=O)c1cncc(C#Cc2cnn3c(C(F)(F)F)cc(-c4ccc(C(F)(F)F)cc4)nc23)c1 (centres unmarked) [Example 28] ?
# output 225 to 226 °C

# input melting point for Cc1cc(-c2cc(C(F)F)n3ncc(C#Cc4ccc(S(=O)(=O)NC(C)(C)CO)s4)c3n2)ccc1Cl [Example 175] ?
# output 145 °C

# input melting point for CN(C)CCNS(=O)(=O)c1cccc(C#Cc2cnn3c(C(F)F)cc(-c4ccc(C(F)(F)F)cc4)nc23)c1 [Example 148] ?
# output 160 to 162 °C
